Would you kindly list GI50 for each of these molecules?
tested on: HS 578T breast; assay: NCI tumour cell line growth inhibition, 48 h

Below are worked cases with known answers.
S=C1SCN(Cc2ccccc2)CN1Cc1ccco1	19.7 µM
O=C(O)CN(CCN(CC(=O)O)CC(=O)O)CC(=O)O.[Mn+2]	> 100 µM
Cc1cccc(Cn2cc(CO)c3cnccc32)c1	> 100 µM

Lab note: each molecule below needs its GI50 filled in.
1. CC(=O)Oc1ccc(C2=Cc3ccc(OC(C)=O)cc3OC2C)cc1 (stereo unspecified)
2. CCC(c1ccccc1)c1noc(CCN(CC)CC)n1 (stereo unspecified)
3. COc1cc(C(=O)/C=C/c2cccc(Nc3ccnc4cc(Cl)ccc34)c2)cc(OC)c1OC

**Result**
2.75 µM
> 40.7 µM
2.49 µM

Lab note: each molecule below needs its GI50 filled in.
1. OCCCCC#Cc1ccccc1C#Cc1cccc(C(F)(F)F)c1
2. O=C(Nc1ccc(OC(F)(F)Cl)cc1)c1cnc(N2CC[C@@H](O)C2)c(-c2ccn[nH]2)c1
3. COc1ccc(/C=C2\CCC/C(=C\c3ccc(OC)c(OC)c3)C2=O)cc1OC
4. CSc1nc2nc(-c3ccccc3)c(C)c-2c2n1C(C)C(=O)N2 (stereo unspecified)
5. CCCCS(=O)c1sc2nc(-c3cccs3)cc(-c3ccccc3)c2c1N (stereo unspecified)

**Result**
1: 29.7 µM; 2: 17.6 µM; 3: 7.95 µM; 4: 77.5 µM; 5: 18.9 µM

Lab note: each molecule below needs its GI50 filled in.
1. N#CC(C#N)=C/C=C(\Sc1ccc(Cl)cc1)c1ccc(F)cc1
2. COc1ccc(-c2cc(/C=C/C(=O)c3ccc(N)cc3)[nH]n2)cc1OC
3. Cc1cnc(C(=O)NNc2nc3sc4c(c3c(=O)[nH]2)C(C)CCC4)cn1 (stereo unspecified)
4. COCCN(Cc1ccc(F)cc1)c1ccc(CO)c(Cl)c1
5. Nc1nccc(-c2c(-c3ccc(F)cc3)nn3cc(C(F)(F)F)ccc23)n1
6. COc1ccc(-c2[nH]c3ccc(OC)cc3c2C=C(C#N)C#N)cc1
7. CCCCCCCCCCCCCCNC(=O)Nc1ccc(Cl)c(Cl)c1
8. ClCCOCCn1cnc2c(Cl)nc(Cl)nc21

**Result**
1. 2.75 µM
2. 6.58 µM
3. 4 µM
4. 60.9 µM
5. > 25 µM
6. 0.924 µM
7. 3.14 µM
8. 2.51 µM

Lab note: each molecule below needs its GI50 filled in.
1. Cc1ccc(NC(=O)c2cc(S(=O)(=O)Nc3nnc(-c4ccccc4)c(-c4ccccc4)n3)c(SCc3ccccc3)cc2Cl)cc1
2. CC(=O)Oc1c(C(=O)[O-])cc(C(C)C)cc1C(C)C.CC(=O)Oc1c(C(=O)[O-])cc(C(C)C)cc1C(C)C.CC(=O)Oc1c(C(=O)[O-])cc(C(C)C)cc1C(C)C.CC(=O)Oc1c(C(=O)[O-])cc(C(C)C)cc1C(C)C.[Cu+2].[Cu+2]

**Result**
["25.4 µM", "50.5 µM"]

###

tested on: HCC-2998 colon; assay: NCI tumour cell line growth inhibition, 48 h; in the data active means GI50 below about 0.43 µM; inactive means the rest
Result category, one only: T for active, F for inactive

Previously resolved entries follow.
Nc1nccc(-c2c(-c3ccc(F)cc3)nn3cc(C(F)(F)F)ccc23)n1	F
COc1ccc(-c2nc3ccc(Cc4ccc5nc(-c6ccc(OC)cc6)[nH]c5c4)cc3[nH]2)cc1	T
CN(C)c1ccc(-c2cc(-c3ccc(Nc4nc(Nc5ccc(Cl)cc5)nc(Nc5ccc(Cl)cc5)n4)cc3)nc(N)c2C#N)cc1	F
COc1ccc(-c2cc(/C=C/C(=O)c3ccc(N)cc3)[nH]n2)cc1OC	F
C#Cc1ccc(-n2c(/C=C/c3ccc(O)cc3)nc3ncccc3c2=O)cc1	F

**Query** How was CC(=O)Oc1ccc(C2=Cc3ccc(OC(C)=O)cc3OC2C)cc1 (stereo not drawn) classified in this test?
**Result** F

**Query** How was `CC(C)[C@@H]1CC[C@]2(CO2)[C@@H]2C(=O)OCC(C(=O)O)=C[C@H]21` classified in this test?
**Result** F

**Query** How was `C=C(C#N)C(=O)OCC(CC)CC.C=C(C#N)C(=O)OCC(CC)CC.CS(C)=O.CS(C)=O.Nc1c(N=Nc2ccc(-c3ccc(N=Nc4cc(S(=O)(=O)[O-])c5ccccc5c4N)cc3)cc2)cc(S(=O)(=O)[O-])c2ccccc12.[Pt+2]` classified in this test?
**Result** F
